Test system: STEME
protocol_description: Greenhouse trial: resistant biotypes following PE application (test method 9)
Type: in vivo, Stellaria media
settings: PE; resistant biotype; g of AS/ha: (A) 90, (B) 1200, (C) 140, (A)+(B)+(C) 90 + 1200 + 140, iodosulfuron 10
Listing of recorded activity STEME resistant by entry.
Quick reminder: number only, in %, skip the unit.

# input Looking for the measured activity STEME resistant of CSc1nnc(C(C)(C)C)c(=O)n1N [(C) metribuzin] , can you help?
# output 98

# input Also CCCN(CCC)C(=O)SCc1ccccc1 [(B) prosulfocarb, S-(phenylmethyl) dipropylcarbamothioate] , if possible.
# output 40

# input Also COc1nc(C)nc(NC(=O)NS(=O)(=O)c2cc(I)ccc2C(=O)O)n1 [iodosulfuron] , if possible.
# output 40

Let us move to another entry and its activity STEME resistant.
# input Looking for the measured activity STEME resistant of CC(C)N(C(=O)COc1nnc(C(F)(F)F)s1)c1ccc(F)cc1 [(A) flufenacet] , can you help?
# output 0

Data origin, for the record: patent US20110152088A1
